test: in vivo; format: in vivo; settings: SCID, mouse, in vivo, ip; daily i.p. for 10 days; read-out: maximum tolerated dose
MEASURED_QUANTITY: MTD at 10 days (mg/kg)
One number for each entry, in mg/kg.

Param item = CCCCCCCCCCCCCCCCCCOCC(COP(=O)(O)OC1C(O)CC(O)C(O)C1O)OC (stereo not shown) ; retrieve measured MTD at 10 days.
75

====

test: in vivo; type: in vivo; details: SCID, mouse, in vivo, ip; daily i.p. for 5 days; read-out: maximum tolerated dose
MEASURED_QUANTITY: MTD at 5 days (mg/kg)
Answers are plain numbers, in mg/kg.

Param item = CCCCCCCCCCCCCCCCCCOCC(COP(=O)(O)OC1C(O)CC(O)C(O)C1O)OC (stereo not shown) ; retrieve measured MTD at 5 days.
100

====

tested on: HT-29 colon cancer cells; test: HT-29 colony formation in soft agarose; type: cell-based, human; settings: HT-29 colonies in soft agarose, 7 days exposure, mean of 3 determinations ± S.E.
MEASURED_QUANTITY: IC50 (µM)
Numbers only, in µM.

{"MOLECULE": "CCCCCCCCCCCCCCCC(=O)OCC(COP(=O)(O)OC1C(O)CC(O)C(O)C1O)OC(=O)CCCCCCCCCCCCCCC (centres unmarked) [(30), 3-deoxy-phosphatidyl-myo-inositol, reference compound]", "IC50 (µM)": 35}

Item: CCCCCCCCCCCCCCCC(=O)OCC(COP(=O)(O)OC1C(O)C(O)C(O)C(F)C1O)OC(=O)CCCCCCCCCCCCCCC (centres unmarked) [(35), 3-Fluoro-3-deoxy-PtdIns, reference compound] Test system: HT-29 colon cancer cells Read-out: IC50 Value: ?
37
